- PROTOCOL_TEXT: yeast display, Sf9 membrane polyspecificity reagent, FACS + sequencing; frameworks hold sequencing errors
EXPERIMENTAL_ENDPOINT: polyreactivity (PSR sort gate)

                           primary_sequence           experimental_endpoint      value_reported
0  QVQLVESGGGLVQAGGSLRLSCAASGSIFGTNAMGWYRQAPGKERELVAAISLSTGSTYYADSVKGRFTISRDNAKNNVYLQMNSLKPEYTAVYYCAAYYVTPIYYYWGQGSQVTVSS  polyreactivity (PSR sort gate)  low polyreactivity
1  QVQLVESGGGLVQAGGSLRLSCAASGSNFGYYAMAWYRQAPGKERELVAVITWNTGNTYYADSVKGRFTISRDNAKNTVYLQMNRLKPEDTAVYYCAADQTGWGDTYDYWGQGTEVTVSS  polyreactivity (PSR sort gate)  low polyreactivity
2  QVQLVESGGGLVQAGGSLRLSCAASGRIFYSYAMGWYRQAPGKELELVAAIDESDGSTYYADSVKGRFTISRDNAKNTVYLQMNSLKPEDTAVYYCAADSLLVLFDYWGQGTQVTVSS  polyreactivity (PSR sort gate)  low polyreactivity

---

- PROTOCOL_TEXT: yeast display, Sf9 membrane polyspecificity reagent, FACS + sequencing; frameworks hold sequencing errors
EXPERIMENTAL_ENDPOINT: polyreactivity (PSR sort gate)

PRIMARY_SEQUENCE	polyreactivity (PSR sort gate)
QVQLVESGGGLVQAGGSLRLRCAASGLIFPYNAMGWYRQAPGKERELVAAIDTRGSSTYYADSVKGRFTISRDNAKNTVYLQMNSLKPEDSAVYYCNARTGRSPTGFRYWGQGTEVTVSS	high polyreactivity
QVQLVESGGGLVQAGGSLSLSCAASGSIFYYNAMGWYRQAPGKERELVAAITSSAITNYADSVKGRFTISRDNAKNTVYLQMKSRKPEDTAVYYCAGRITTRPRSTRKRVWVDYWGQGTQVTVSS	high polyreactivity
QVQLVESGGGLVQAGGSLRLSCAASGIIFYDYAMGWYRQAPGKERELVAAITSSGGSTYYADSVKGRFTISRDNAKNTVYLQMNRLKPEDTAVYYCAAATRGSGRRYDYWGQGTQVTVSS	high polyreactivity
QVELVESGGGLVQAGGILRLSCAASGSTFSIYAMGWYRQGPGKERELVAAISGDGITKYADSVKGRFTISRDNAKNTVYLQMNSLKPEDTAVYYCNAHELTDDGKMDSWGQGTQVTVSS	low polyreactivity
QVQLVESGGGLVQAGGSLRLSCAASGITFGPYAMGWYRQAPGKERELVAAITWGGGSTYYADSVKGRFTISRDNAKNTVYFQMNSLKPEDTAVYYCAASVEWYGWYPYDFWGQGTQVTVSS	low polyreactivity

State the recorded polyreactivity (PSR sort gate) for this entry: `QVQLVESGGGSVQAGGSLRLSCAASGRTFVFNAMGWYRQAPGKESELVAGISGSGGSTYYAESVKGRFTISRDNAKNNVYLQMNSLKPEDTAVYYCANTFPRKELDQESVSGLGYWGQGTQVTVSS`
low polyreactivity

Data request, read-out polyreactivity (PSR sort gate), for `QVQHVESGGGLVQAGGSLRLSCAASGIIFYWYAMGWYRQAPGKERELVAAISRTGGSTYYADSVKGRFTISRDNAKNTVYLQMNSLKPEDTAVYYCAADDGGYWSAGHEYWGQGTQVTVSS`
high polyreactivity

Query: polyreactivity (PSR sort gate); subject: `QVQLVVSGGGLDQARGSLSLSCAASGRNFTSYAMGWYRQAPWKERELVAAISWSVGSTYYADSVKGRFTISRDNAKNTVYLQMNSLKPEDTSVYYCNAVYPSVYPVSTRYYWGQGTQVTVSS`
high polyreactivity

Given the sequence `QVQLVESGGGLVQAGGSLRLSCASSRINFYLYAMGWYRQAPGIERELVAAISRRGVSTYYADSVKGRFTISRDNAKNSVYLEMKSLKAEDTGVYYCAAAGFGYTGEEFWGQGTQVTVSS` , what is its reported polyreactivity (PSR sort gate)?
high polyreactivity

Could you tell me which polyreactivity (PSR sort gate) is on file for `QFQLVESGGGLVQAGGSLRLSCAASGLIFAYYAMGWYRQAPGKERELVAAISWTGGSTYYADSVKGRFTISRDNAKNTVYLQMNSLKPEDTAVYYCNTVGKPGFYSWGQGTQVTVSS` ?
high polyreactivity

What value of polyreactivity (PSR sort gate) has been recorded for this entry: `QVQLEESGGGLVQAGGSLRLSCAASGRTFYYNAMGSSRQAPGKERELVAGITYRGGSTYYADSVKGRFTISRDNAKNTVYLQMNSLKPEDTAVYYCAVKYSWLSRFNYWGLGTQVTVSS`
high polyreactivity
